Data credit: paper PMC6719172

measurement_target: CpLIP2 lipase (Candida parapsilosis)
Sequence (Q8NIN8 entry or part of it): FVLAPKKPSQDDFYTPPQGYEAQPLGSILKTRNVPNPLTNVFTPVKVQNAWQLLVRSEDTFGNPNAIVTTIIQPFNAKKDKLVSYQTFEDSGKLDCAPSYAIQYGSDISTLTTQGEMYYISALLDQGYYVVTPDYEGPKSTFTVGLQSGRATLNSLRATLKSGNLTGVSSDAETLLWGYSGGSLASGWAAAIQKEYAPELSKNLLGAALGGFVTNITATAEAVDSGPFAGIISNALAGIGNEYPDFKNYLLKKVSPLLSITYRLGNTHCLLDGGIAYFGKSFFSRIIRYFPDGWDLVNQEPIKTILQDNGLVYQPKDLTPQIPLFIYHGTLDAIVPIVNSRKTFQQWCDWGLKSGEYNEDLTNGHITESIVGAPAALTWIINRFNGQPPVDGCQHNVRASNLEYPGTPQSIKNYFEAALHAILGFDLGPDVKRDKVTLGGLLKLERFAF
test_protocol: Quenching of CpLIP2 intrinsic tryptophan fluorescence by flavonols (Stern–Volmer, Lehrer, van't Hoff analysis)
Assay type: binding
condition_summary: 308 K; ΔG = ΔH − TΔS
observable: ΔG (free energy change)

molecule	result
O=c1c(O)c(-c2ccc(O)c(O)c2)oc2cc(O)cc(O)c12 [QUE, quercetin]	-43.4 kJ/mol
O=c1c(O)c(-c2ccccc2)oc2cc(O)cc(O)c12 [GAL, galangin]	-87.5 kJ/mol
O=c1c(O)c(-c2ccc(O)cc2)oc2cc(O)cc(O)c12 [KAE, kaempferol]	-40.6 kJ/mol
O=c1c(O)c(-c2cc(O)c(O)c(O)c2)oc2cc(O)cc(O)c12 [MYR, myricetin]	-27.0 kJ/mol
